System: HCC-2998 colon
Experiment: NCI-60 one-dose screen, 48 h
Conditions: 10 µM unless noted
The panel holds about 83,000 compounds, 20% with a hit somewhere; the sample as a whole holds those more often. Active and inactive are the calls of the source. The calls were made as follows: active = growth percent below 10; inactive = the rest.
Outcomes: active, inactive

{"molecule": "COc1cc(/C=C/C(=O)c2c(C)[n+]([O-])c3ccccc3[n+]2[O-])ccc1O", "target_under_test": "HCC-2998 colon", "category_label": "inactive"}
{"molecule": "CN(C)c1ccc(/C=N/n2c(-c3cc(F)c(Cl)cc3Cl)nn(CN3CCOCC3)c2=S)cc1", "target_under_test": "HCC-2998 colon", "category_label": "inactive"}
{"molecule": "C=C1C(=O)O[C@H]2[C@H]1CC/C(CNC(=O)/C1=C/CC[C@@]3(C)O[C@H]3[C@H]3OC(=O)C(=C)[C@@H]3CC1)=C\\CC[C@@]1(C)O[C@@H]21", "target_under_test": "HCC-2998 colon", "category_label": "inactive"}
{"molecule": "Cc1cc[n+](CCCC[n+]2ccc(C)cc2)cc1", "target_under_test": "HCC-2998 colon", "category_label": "inactive"}
{"molecule": "O=C(Nc1cccc(-n2ccc3c(NC(=O)c4ccccc4)nccc32)c1)Nc1ccc(Cl)c(C(F)(F)F)c1", "target_under_test": "HCC-2998 colon", "category_label": "inactive"}
{"molecule": "CN1CCN(C(=O)/C=C/c2ccc([N+](=O)[O-])o2)CC1", "target_under_test": "HCC-2998 colon", "category_label": "inactive"}
{"molecule": "O=C(Nc1ccc(-n2ccc3c(NC(=O)c4ccccc4)ncnc32)cc1)c1ccc(Cl)c(C(F)(F)F)c1", "target_under_test": "HCC-2998 colon", "category_label": "inactive"}
{"molecule": "CC1=C[S+](c2ccccc2)c2cccc3cc4ccccc4c1c23 (centres undefined)", "target_under_test": "HCC-2998 colon", "category_label": "active"}
{"molecule": "CCc1c2cc(Cl)ccc2n2cc(Cc3ccccc3)[nH]c(=O)c12", "target_under_test": "HCC-2998 colon", "category_label": "inactive"}
